Assay: kinetic analysis, non-endpoint assay at 23° C.
Assay type: biochemical
Conditions: 23° C.; purified His-tagged protein; standard error in parenthetical; read-out: Km Quizalofop
Items are presented alongside their recorded Km.
Numbers only; they are read as µM.

{"columns": ["molecule", "Km, µM"],
 "data": [
  ["MON-HT3: engineered oxygenase protein, amino acid sequence SEQ ID NO:22 (protein) MHAALSPLSQRFERIAVQPLTGVLGAEITGVDLREPLDDSTWNEILDAFHTYQVIYFPGQAITNEQHIAFSRRFGPVDPVPLLKSIEGYPEVQMIRREANESGRVIGDDWHTDSTFLDAPPAAVVMYAKEVPPYGGDTLFASMYTAWETLSPTMQATIEGLNVVHSATRVFGSLYQAQNRRFSNTSVKVMDVDAGDRETVHPLVVTHPETGRKGLYVNQVYCQRIEGMSEKESEPLLSFLFAHATKPEFTCRVRWQEGQVLVWDNLCTQHFAVPDYAGKFRYLTRTTVGGVRPAR", 380]
]}

Next molecule, please.
Query: Value lookup for Km; key = MON-HT55: engineered oxygenase protein, amino acid sequence SEQ ID NO:11 (protein) MHAALSPLSQRFERIAVQPLTGVLGAEITGVDLREPLDDSTWNEILDAFHTYQVIYFPGQAITNEQHIAFSRRFGPVDPVPLLKSIEGYPEVQMIRREANESGRVIGENWHTDSTFLDAPPAAVVMYAKEIPPYGGDTLFTSMYTAWETLSPTMQATIEGLNVVHSATRVFGSLYQAQNRRFSNTSVKVMDVDAGDRETVHPLVVTHPETGRKGLYVNQVYCQRIEGMSEKESEPLLSFLFAHATKPEFTCRVRWQEGDVLVWDNLCTQHYAVPDYAGKFRYLTRTTVGGVRPAR
Result: 320
